Here the recorded ED (20 mm Hg) is given for each entry.
# Tested on: lower esophageal sphincter (LES)
# Protocol: Determination of LES pressure in the anesthetized dog
# Type: in vivo, dogs
# Condition summary: Canis lupus familiaris, intravenous, mean ED20 = dose which increases LES pressure 20 mm Hg (N>=3), read-out: ED20 in mcg/kg i.v.
Kindly report the value followed by its unit.

See these solved cases before continuing.
1) Oc1ccc2c(c1)CCNCC2: 348 µg/kg
2) CN1CCc2cc(O)c(Sc3ccccc3)cc2CC1: 14 µg/kg
3) CSc1ccc2c(c1)CCN(C)CC2: 273 µg/kg
4) CN1CCc2cc(Sc3ccccc3)c([N+](=O)[O-])cc2CC1: 1200 µg/kg

Report ED (20 mm Hg) for `CN1CCc2ccc(O)c(Sc3ccccc3)c2CC1` please. 63 µg/kg
